# measured.on: Protein kinase C theta type (Homo sapiens)
# Sequence (Q04759 whole entry): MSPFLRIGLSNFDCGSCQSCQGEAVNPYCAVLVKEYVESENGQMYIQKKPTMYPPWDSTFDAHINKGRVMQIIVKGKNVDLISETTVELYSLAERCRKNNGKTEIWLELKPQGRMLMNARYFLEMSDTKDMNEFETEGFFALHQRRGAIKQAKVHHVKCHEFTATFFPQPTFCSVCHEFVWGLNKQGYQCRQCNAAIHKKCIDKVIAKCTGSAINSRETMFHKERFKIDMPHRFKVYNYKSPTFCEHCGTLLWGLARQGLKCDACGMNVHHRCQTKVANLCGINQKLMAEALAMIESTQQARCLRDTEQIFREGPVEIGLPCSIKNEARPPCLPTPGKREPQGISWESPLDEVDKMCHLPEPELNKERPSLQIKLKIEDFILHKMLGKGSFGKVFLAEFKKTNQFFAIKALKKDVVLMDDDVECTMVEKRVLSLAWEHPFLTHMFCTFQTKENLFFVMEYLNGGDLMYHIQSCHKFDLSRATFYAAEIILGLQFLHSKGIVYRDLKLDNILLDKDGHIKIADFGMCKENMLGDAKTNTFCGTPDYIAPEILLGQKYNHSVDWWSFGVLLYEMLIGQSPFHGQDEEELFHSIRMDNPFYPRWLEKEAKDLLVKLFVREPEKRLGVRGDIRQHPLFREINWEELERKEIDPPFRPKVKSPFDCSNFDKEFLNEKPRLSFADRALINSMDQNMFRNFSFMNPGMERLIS
# protocol.details: Inhibition of PKCtheta (unknown origin) incubated for 15 mins in presence of 33P-ATP by Topcount scintillation counting method
Give pIC50 for every item shown.
Numbers only, as −log10 of the molar value.

See these solved cases before continuing.
compound: Nc1ncc(-c2ncccc2C(F)(F)F)nc1C(=O)Nc1ncccc1N1C[C@H]2CC[C@@H](C1)[C@@H]2N
pIC50: 8.52
//
compound: CO[C@H]1CN(c2ccncc2NC(=O)c2nc(-c3ncccc3OC(F)(F)F)cnc2N)CC[C@@H]1N
pIC50: 8.70
//
compound: Nc1ncc(-c2ncccc2C(F)(F)F)nc1C(=O)Nc1cccnc1N1CCC(N)CC1
pIC50: 7.16
//
compound: Nc1ncc(-c2ncccc2OC(F)(F)F)nc1C(=O)Nc1ccncc1N1CCC(N)CC1
pIC50: 8.89
//
compound: CN1CCN(c2nc(C3=C(c4c[nH]c5ccccc45)C(=O)NC3=O)c3ccccc3n2)CC1
pIC50: 9.52

Please look at the following compound next.
Fill in the blank: the reported pIC50 of Nc1ncc(-c2ncccc2OC(F)(F)F)nc1C(=O)Nc1ncccc1N1CCC(N)C(F)(F)C1 (stereo unspecified) is ____.
8.00

====

# System: SK-MEL-28
# protocol.details: cells
# reported.conditions: Homo sapiens
pIC50: −log10 of the molar value.
readout.name: pIC50

compound: CC1(N)CCN(c2cccnc2NC(=O)c2nc(-c3ncccc3C(F)(F)F)cnc2N)CC1 [DAROVASERTIB]
measured.on: SK-MEL-28
result: < 5.00

Turning now to a further record.
Query: pIC50; subject: CN1CCN(c2nc(C3=C(c4c[nH]c5ccccc45)C(=O)NC3=O)c3ccccc3n2)CC1 [SOTRASTAURIN]
< 5.00

====

# protocol.details: AUCinfinity in dog at 3 mg/kg, po measured upto 24 hrs by LC-MS/MS analysis
# Assay type: ADME, organism-based, Canis lupus familiaris
# reported.conditions: in vivo
readout.name: AUC(0-inf) (µM·h)
Numbers only, in µM·h.

AUC(0-inf) for CC1(N)CCN(c2cccnc2NC(=O)c2nc(-c3ncccc3C(F)(F)F)cnc2N)CC1 ?
21.4

====

# protocol.details: Volume of distribution at steady state in mouse at 1 mg/kg, iv measured upto 24 hrs by LC-MS/MS analysis
# Assay type: ADME, organism-based
# reported.conditions: in vivo, read-out: Vdss
readout.name: Vd (L/kg)
Answers are plain numbers, in L/kg.

Please look up its Vd: CC1(N)CCN(c2cccnc2NC(=O)c2nc(-c3ncccc3C(F)(F)F)cnc2N)CC1
1.6

====

# measured.on: Receptor-type tyrosine-protein kinase FLT3 (Homo sapiens, UniProt P36888)
# Sequence (P36888 whole entry): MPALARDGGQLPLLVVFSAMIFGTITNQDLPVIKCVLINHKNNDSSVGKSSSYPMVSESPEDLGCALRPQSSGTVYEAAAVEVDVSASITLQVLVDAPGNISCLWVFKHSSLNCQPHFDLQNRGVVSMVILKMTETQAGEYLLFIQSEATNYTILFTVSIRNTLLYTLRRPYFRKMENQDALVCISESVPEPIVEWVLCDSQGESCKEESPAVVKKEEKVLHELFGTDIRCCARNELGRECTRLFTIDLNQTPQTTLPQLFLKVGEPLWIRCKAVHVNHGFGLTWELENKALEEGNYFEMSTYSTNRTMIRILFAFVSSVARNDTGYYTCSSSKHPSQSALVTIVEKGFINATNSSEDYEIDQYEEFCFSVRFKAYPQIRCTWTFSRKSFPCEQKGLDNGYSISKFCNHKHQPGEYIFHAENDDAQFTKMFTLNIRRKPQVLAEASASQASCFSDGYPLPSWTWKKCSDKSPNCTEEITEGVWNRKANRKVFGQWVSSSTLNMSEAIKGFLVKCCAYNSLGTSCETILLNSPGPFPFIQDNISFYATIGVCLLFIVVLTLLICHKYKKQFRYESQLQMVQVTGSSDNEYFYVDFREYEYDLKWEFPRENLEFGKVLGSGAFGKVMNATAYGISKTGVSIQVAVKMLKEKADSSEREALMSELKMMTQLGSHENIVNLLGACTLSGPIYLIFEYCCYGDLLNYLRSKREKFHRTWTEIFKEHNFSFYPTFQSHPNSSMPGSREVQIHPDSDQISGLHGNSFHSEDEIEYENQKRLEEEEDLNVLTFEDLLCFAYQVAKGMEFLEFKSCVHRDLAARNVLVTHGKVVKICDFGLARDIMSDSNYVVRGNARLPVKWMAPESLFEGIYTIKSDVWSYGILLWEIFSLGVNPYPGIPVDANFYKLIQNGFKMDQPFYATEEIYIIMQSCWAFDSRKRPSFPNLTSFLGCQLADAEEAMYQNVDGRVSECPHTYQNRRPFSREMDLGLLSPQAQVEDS
So basically, if IC50 comes in under 100 nM it's yes (1), and if it's 100 nM or more it's no (0).

Example entries begin here.
smiles.string: Nc1ncc(-c2ncccc2C(F)(F)F)nc1C(=O)Nc1ncccc1N1CCC(N)CC1
group.label: no (0)

smiles.string: CN(C)c1ccc(C(F)(F)F)c(-c2cnc(N)c(C(=O)Nc3ncccc3N3CCC(N)CC3)n2)n1
group.label: yes (1)

smiles.string: Nc1ncc(-c2nc(N3CCC3)ccc2C(F)(F)F)nc1C(=O)Nc1ncccc1N1CCC(N)CC1
group.label: no (0)

smiles.string: Nc1ncc(-c2cccc3[nH]ncc23)nc1C(=O)Nc1ncccc1N1CCC(N)CC1
group.label: yes (1)

smiles.string: Nc1ncc(-c2ncccc2OC(F)(F)F)nc1C(=O)Nc1ncccc1N1CCC(N)CC1
group.label: no (0)

Could you now look at the following compound, please?
Item Nc1ncc(-c2ncccc2OC(F)(F)F)nc1C(=O)Nc1cnccc1N1CCC(N)CC1 : IC50 beneath 100 nM, strictly?
no (0)
